- Tested on: NCI-H226
- PROCEDURE_SUMMARY: NCI tumour cell line growth inhibition, 48 h
Active and inactive are the calls of the source. Rule as the data show it: active = GI50 up to about 1.1 µM and inactive = higher.

COMPOUND: CCCCCCCCCCCCSC(=S)c1c(C)[nH]n(-c2ccccc2)c1=O
GI50: 14.9 µM (inactive)
--
COMPOUND: C=C(C)CC(C)(c1cc2ccccc2n1C)N1CCOCC1 (stereo not given)
GI50: 69.8 µM (inactive)
--
COMPOUND: COc1ccc2nc3c([N+](=O)[O-])ccc(NCCCN(C)C)c3c(N)c2c1
GI50: 1.99 µM (inactive)
--
COMPOUND: [O-][n+]1c(-c2ccccc2)oc2ccccc21
GI50: 30.8 µM (inactive)
--
COMPOUND: Cc1cc(C)c(-c2noc(-c3ccc(Cl)cc3)c2C2=NCCCN2)c(C)c1
GI50: 29.9 µM (inactive)
--
COMPOUND: CCCCCCNC(=O)c1cc(CCc2cc(O)ccc2O)ccc1O
GI50: 4.23 µM (inactive)
--
COMPOUND: C/C(=N\NC1=NCCN1)c1cn(C2=NCCN2)nc1C
GI50: > 100 µM (inactive)
--
COMPOUND: CCOC(=O)C(Cc1ccc(N(CCCl)CCCl)cc1)NC(=O)CCCN1C(=O)CN=C(c2ccccc2)c2cc(Cl)ccc21 (stereo not given)
GI50: 35.2 µM (inactive)
--
COMPOUND: Nn1c(CCCCCCCCc2nnc(COc3ccc4ccccc4c3O)n2N)nnc1COc1ccc2ccccc2c1O
GI50: 17.9 µM (inactive)
--
COMPOUND: COC(=O)c1nc(NN)cc(O)c1CCCCCc1c(O)nc(NN)nc1C(=O)OC
GI50: > 100 µM (inactive)
--
COMPOUND: COc1ccc(C(Cl)=C(c2ccc(OCCN(C)C)cc2)c2ccc(OCCN(C)C)cc2)cc1
GI50: 1.61 µM (inactive)
--
COMPOUND: Nc1nc(SCCC/C=C/I)nc2c1ncn2C1OC(COP(=O)(O)O)C(O)C1O (stereo not given)
GI50: > 100 µM (inactive)
--
COMPOUND: CCCCCC(/C=N/N)C(O)(C(F)(F)F)C(F)(F)F (stereo not given)
GI50: 2.54 µM (inactive)
--
COMPOUND: Fc1ccc(NCn2nc(COc3ccccc3Cl)n(/N=C/c3ccc(-c4ccc(Cl)cc4Cl)o3)c2=S)cc1Cl
GI50: 83.8 µM (inactive)
--
COMPOUND: COC(=O)[C@@H]1C=C[C@@H](C#N)n2c(=O)n(-c3ccccc3)c(=O)n21
GI50: 15.6 µM (inactive)
--
COMPOUND: COc1cc2c(cc1OC)[C@H](C)N1CCc3cc(OC)c(OC)cc3[C@@H]1C2
GI50: > 100 µM (inactive)
--
COMPOUND: COc1ccc(NC(C(N)=O)c2cc3cc(Br)ccc3nc2Cl)cc1 (stereo not given)
GI50: > 100 µM (inactive)
--
COMPOUND: Cc1cc(C2(O)C=C(C(C)(C)C)C(=O)C(C(C)(C)C)=C2)c(C)cc1C1(O)C=C(C(C)(C)C)C(=O)C(C(C)(C)C)=C1
GI50: > 100 µM (inactive)
--
COMPOUND: N#C/C(=C\c1cc(OCc2ccccc2)c(OCc2ccccc2)cn1)C(N)=O
GI50: > 100 µM (inactive)
--
COMPOUND: N#CCCN(CCC#N)c1ccc(/C=C(/NC(=O)Nc2ccccc2Cl)NC(=O)c2cc([N+](=O)[O-])ccc2Cl)cc1
GI50: > 100 µM (inactive)
